B1: tRNA (parent)
chain: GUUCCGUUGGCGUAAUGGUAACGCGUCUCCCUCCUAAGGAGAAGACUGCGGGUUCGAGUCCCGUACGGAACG

# Variants of: B1
# Assay Protocol: yeast fitness relative to wild type (ratio to wild type); higher = fitter; tRNA-Arg(CCU), competitive growth, 37 C, YPD
Fewer inactive variants are shown than the library holds.
Assay Endpoint: yeast fitness
Numbers only.

Answered cases to consult:
Mutations: C4A U13A G58C A69U
yeast fitness: 0.655
--
Mutations: U2A U7G
yeast fitness: 0.847
--
Mutations: A14G A21C G63C
yeast fitness: 0.546
--
Mutations: C5U A21C G44C C46U
yeast fitness: 0.532
--
Mutations: A36G A37C A45C C46G
yeast fitness: 0.554

Parameters: items (list). Returns: yeast fitness for each item.
1. C62A C66U
2. C30U A43C G52A
3. C5U A15G

Data returned:
1: 0.694; 2: 0.516; 3: 0.912
